- test-description: Toxicity liver stage against HepG2, at 10uM
- Format: cell-based
- Set-up: test concentration 10 uM, cell line HepG2-A16-CD81EGFP
- measurement-parameters: human, HepG2-A16-CD81EGFP cells; read-out: INHIBITION
The following compounds are shown together with reported cytotoxicity at 10 µM values.
Give just the numeric value; % need not be written.

CC(=O)N1CCC(N2CCOC[C@H]2c2nc(-c3ccncc3)c[nH]2)CC1 | 1.58
O=C(c1cnc(C2CC2)nc1O)N1CCN(Cc2ccccc2F)CC1 | -1.83
CCn1c(CN2CCN(CCO)CC2)nc2c(F)cccc21 | -8.83
CNS(=O)(=O)c1cccc(S(=O)(=O)Nc2ncc(C)s2)c1 | -4.79
CCC(CO)N(Cc1ccccc1C)Cc1ccccc1C(=O)O (stereo unspecified) | -6.32
COc1cccn(CC(=O)N(C)CCC2CCOCC2)c1=O | -19
O=C1COc2cc(S(=O)(=O)NCCC3=CCCCC3)c(Cl)cc2N1 | 18.6
COCCN1CCO[C@@H]2CN(C(=O)COc3ccc(C)cc3)C[C@@H]2C1 | -0.572
CC(=O)N1CCCC1c1nc(C)c2c(n1)N(Cc1ccccn1)CCC2 (stereo unspecified) | 0.711
NCC1CCN(c2cnn(CCCn3cccn3)c(=O)c2)CC1 | -52.8

Query string: Value lookup for cytotoxicity at 10 µM; key = Cc1cccc(NC(=O)Cn2nc3ccccn3c2=O)c1C
Result string: -13.4
